Data origin: the RNAGym collection of RNA variant scans (doi:10.1093/molbev/msab373)

B1: Azoarcus group I ribozyme (parent)
chain: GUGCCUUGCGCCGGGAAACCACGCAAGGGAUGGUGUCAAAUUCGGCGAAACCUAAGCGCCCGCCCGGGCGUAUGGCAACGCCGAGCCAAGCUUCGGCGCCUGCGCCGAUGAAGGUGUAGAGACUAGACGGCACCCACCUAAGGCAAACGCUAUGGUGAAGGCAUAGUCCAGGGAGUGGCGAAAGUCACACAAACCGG

- Variants of: B1
- experiment summary: reverse-splicing fitness (ratio to wild type); higher = more active; in vitro selection; Mg2+ level not given
Threshold check on reverse-splicing fitness: at or above 0.01 gives label 1, strictly below gives label 0.

Example cases with answers are listed next.
variant_spec="C82A U176A" answer_label="label 1"
variant_spec="A111U A120C C150G U176C" answer_label="label 1"
variant_spec="C82U A111U A120C A145U C150A C169G U176A" answer_label="label 1"
variant_spec="A111C A120C A145G C150G C169A" answer_label="label 0"
variant_spec="C82G A111G A120U C150G C169U U176A" answer_label="label 0"
variant_spec="C82A A111G A120C A145C C169G" answer_label="label 0"
variant_spec="C82G A111U A120C A145G C150A C169A" answer_label="label 1"
variant_spec="A111G A120G A145G C150G C169U U176C" answer_label="label 1"

Check this variant for reverse-splicing fitness at or above 0.01: A111G A120G C150A C169A
label 1

Check this variant for reverse-splicing fitness at or above 0.01: C82G A111G C169G
label 0

Check this variant for reverse-splicing fitness at or above 0.01: A111U A120U A145U C150U U176G
label 1
